Origin of measurements: ChEMBL document CHEMBL3988442

- MEASURED_TARGET: Tyrosyl-tRNA synthetase, putative (Trypanosoma cruzi (strain CL Brener)) (UniProt Q4DSP6)
- Sequence (whole entry): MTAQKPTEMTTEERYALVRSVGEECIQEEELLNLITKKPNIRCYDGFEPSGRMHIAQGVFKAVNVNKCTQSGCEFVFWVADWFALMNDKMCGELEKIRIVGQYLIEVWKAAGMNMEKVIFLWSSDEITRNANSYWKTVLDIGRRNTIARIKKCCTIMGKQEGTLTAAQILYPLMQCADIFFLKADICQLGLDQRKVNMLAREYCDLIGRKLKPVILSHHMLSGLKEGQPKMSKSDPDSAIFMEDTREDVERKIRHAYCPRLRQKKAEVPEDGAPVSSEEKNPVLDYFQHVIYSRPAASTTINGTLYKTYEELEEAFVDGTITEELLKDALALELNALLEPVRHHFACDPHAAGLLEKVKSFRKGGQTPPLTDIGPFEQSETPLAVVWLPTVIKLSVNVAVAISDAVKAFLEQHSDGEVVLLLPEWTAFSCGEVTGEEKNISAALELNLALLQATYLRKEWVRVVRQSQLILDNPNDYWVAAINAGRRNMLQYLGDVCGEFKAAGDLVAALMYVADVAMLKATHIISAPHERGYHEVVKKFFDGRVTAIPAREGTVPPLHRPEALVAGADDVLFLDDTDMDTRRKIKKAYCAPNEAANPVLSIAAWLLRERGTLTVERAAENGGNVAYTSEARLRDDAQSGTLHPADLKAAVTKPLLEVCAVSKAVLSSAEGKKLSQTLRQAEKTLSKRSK
- ASSAY_PROCEDURE: Trypanosoma cruzi tyrosyl tRNA synthetase (TcYRS) SOP
- Format: functional
- Set-up: scale not given: direction of the effect not stated beside the values
- MEASUREMENT_CONTEXT: 30 µM
ATTRIBUTE_MEASURED: Percent Effect (%)
Use % as the unit, but write only the number.

>  <COMPOUND>
O=S(=O)(Cc1ccccc1)N1CCCn2cnc(CN3CCCC3)c2C1

>  <MEASURED_TARGET>
Tyrosyl-tRNA synthetase, putative (Trypanosoma cruzi (strain CL Brener)) (UniProt Q4DSP6)

>  <UNIT_INFO>
%

>  <VALUE_MEASURED>
-7.5

$$$$

Per the record, FC1(F)CCN(Cc2cccnc2)CC12CCN(c1ccccn1)C2 (centres undefined) has Percent Effect of 12.8

Lab book: Percent Effect of O=C(CCNC(=O)C1CCCC1)NCc1ccccc1Cn1cncn1 noted as 18.5

Please fill in: Percent Effect reported for CC1(C)CC(N2Cc3nc(N)ncc3C2=O)CC(C)(C)N1 = 21

* * *

- MEASURED_TARGET: Protein translocase subunit SecA (Escherichia coli (strain K12))
- ASSAY_PROCEDURE: Assay to Identify E. coli SecA ATPase Inhibitors
- Assay type: functional
- Parameters: scale not given: direction of the effect not stated beside the values
- MEASUREMENT_CONTEXT: 30 µM
Entries with a potency or affinity are not part of this list.
ATTRIBUTE_MEASURED: Percent Effect (%)
Answer in %, number only, no unit symbol.

Looking up CCOC(CC)C(=O)NCCC(=O)N1CCN(c2ccccn2)CC1 (stereo unspecified) , I see its Percent Effect listed as -3.95

* * *

- MEASURED_TARGET: Tyrosyl-tRNA synthetase, putative (Trypanosoma cruzi (strain CL Brener))
- ASSAY_PROCEDURE: Trypanosoma cruzi tyrosyl tRNA synthetase (TcYRS) _High Tyrosine SOP; note: in the data most compounds retested in dose-response had high values
- Type: functional
- Design: scale not given: direction of the effect not stated beside the values
- MEASUREMENT_CONTEXT: 30 µM
ATTRIBUTE_MEASURED: Percent Effect (%)
Give just the numeric value; % need not be written.

Example entries begin here.
>  <MOLECULE>
CC(=O)N1CCN(Cc2csc(-c3cnn(C)c3)n2)CC1

>  <Percent Effect [%]>
4.41

$$$$
>  <MOLECULE>
O=C(NCc1ccco1)[C@@H]1CCO[C@@H]2CCN(c3ccncn3)C[C@H]21

>  <Percent Effect [%]>
1.04

$$$$
>  <MOLECULE>
O=C(NCCN1CCCCCC1=O)c1n[nH]c(=O)c2ccccc12

>  <Percent Effect [%]>
-6.8

$$$$
>  <MOLECULE>
Cc1noc([C@@H]2C[C@H]3OCC[C@H]3N(S(=O)(=O)c3cccnc3)C2)n1

>  <Percent Effect [%]>
3.12

$$$$
>  <MOLECULE>
Cc1ccccc1C(=O)Nc1cnn(CC(=O)NC2CCCC2)c1

>  <Percent Effect [%]>
7.29

$$$$

// field: Percent Effect; key: CC(C)c1noc(C(C)N2CCN(Cc3ccccc3C#N)CC2)n1 (centres undefined) ; value = -3.45

Entry Cn1cc(-c2cnc(N3CCOCC3)nc2)cc1C(=O)N1CCOCC1 ; Percent Effect = 6.38

Entry under test: O=C(O)CC1CN(Cc2ccccc2)CCO1 (centres undefined) . Its Percent Effect was 8.91

# Percent Effect of COc1ccc(F)cc1C(C(=O)O)N1CCSCC1 (centres undefined) = 8.6

Per the records, this molecule ( CCn1cc(N2Cc3nc(N)ncc3C2=O)cn1 ) has Percent Effect equal to 7.41

For this molecule ( Cc1nc(C)n(CC2CCCN(c3ncnc4ccsc34)C2)n1 (centres undefined) ), measured Percent Effect is 6.4

GET /value?item= COc1cc(C(=O)NC(CC(=O)O)c2cccs2)cc(Cl)c1OC (centres undefined) &field=Percent Effect returns 2.08

Please fill in: Percent Effect reported for O=C1OCCN1CCc1nc(-c2cc3c4c(c2)CC(=O)N4CCC3)cs1 = 0.971

Notebook: Cc1cc(S(=O)(=O)Nc2cccc(-n3cccc3)c2)sc1C(=O)O , Percent Effect read as -43

Please fill in: Percent Effect reported for Cc1ccc(S(=O)(=O)NC(=O)c2c(C)noc2C(C)C)cc1C = 3.19

* * *

- MEASURED_TARGET: Protein translocase subunit SecA (Escherichia coli (strain K12)) (UniProt P10408)
- Sequence (P10408 whole entry): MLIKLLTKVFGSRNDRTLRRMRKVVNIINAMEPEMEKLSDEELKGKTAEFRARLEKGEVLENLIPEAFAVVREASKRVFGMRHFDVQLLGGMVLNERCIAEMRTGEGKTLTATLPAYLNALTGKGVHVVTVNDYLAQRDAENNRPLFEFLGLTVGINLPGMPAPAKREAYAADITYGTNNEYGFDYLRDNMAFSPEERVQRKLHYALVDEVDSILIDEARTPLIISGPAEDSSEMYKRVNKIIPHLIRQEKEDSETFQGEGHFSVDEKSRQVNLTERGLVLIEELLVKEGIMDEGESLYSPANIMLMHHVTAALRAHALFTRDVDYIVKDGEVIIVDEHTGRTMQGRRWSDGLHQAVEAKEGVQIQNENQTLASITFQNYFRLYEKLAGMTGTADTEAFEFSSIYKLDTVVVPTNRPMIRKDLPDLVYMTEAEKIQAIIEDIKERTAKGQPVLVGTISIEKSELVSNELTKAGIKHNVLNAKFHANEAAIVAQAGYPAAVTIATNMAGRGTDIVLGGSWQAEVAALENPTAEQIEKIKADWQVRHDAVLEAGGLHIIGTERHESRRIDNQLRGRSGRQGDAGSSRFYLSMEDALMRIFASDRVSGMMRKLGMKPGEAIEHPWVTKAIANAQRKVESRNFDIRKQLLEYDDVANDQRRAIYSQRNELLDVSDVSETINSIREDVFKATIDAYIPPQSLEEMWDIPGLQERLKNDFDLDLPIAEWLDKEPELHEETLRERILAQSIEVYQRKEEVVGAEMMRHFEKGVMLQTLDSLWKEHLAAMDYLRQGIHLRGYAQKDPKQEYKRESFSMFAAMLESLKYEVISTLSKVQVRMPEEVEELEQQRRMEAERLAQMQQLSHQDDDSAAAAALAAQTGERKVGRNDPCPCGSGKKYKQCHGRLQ
- ASSAY_PROCEDURE: Assay to Identify E. coli SecA ATPase Inhibitors
- Type: functional
- Design: scale not given: direction of the effect not stated beside the values
- MEASUREMENT_CONTEXT: 30 µM
Potency and affinity values are given separately.
ATTRIBUTE_MEASURED: Percent Effect (%)
Answer format: numeric, % implied, no suffix.

>  <COMPOUND>
O=C(c1ccsc1)N1CCc2c(CNc3ncccn3)n[nH]c2C1

>  <ATTRIBUTE_MEASURED>
Percent Effect

>  <VALUE_MEASURED>
-4.87

$$$$

Field Percent Effect (entry Cc1nc(CCNC(=O)NC2CCN(c3ncccn3)CC2)cs1 ) reads -1.83

Record summary for O=C(COc1cccc2c1CCC2=O)NCCOc1ccccc1 : reported Percent Effect = -0.203

Reported Percent Effect of OC[C@H]1CC[C@]2(CC1)CN(Cc1ccccn1)Cc1ccccc1O2 : -1.22

Reported Percent Effect ( O=C(c1cccn1Cc1cccs1)N1CCCC1Cn1cccn1 (stereo unspecified) ) = -1.97

Summary for this compound, O=C(c1ccc(N2CCCC2)nn1)N1CCCC(n2cccn2)C1 (stereo unspecified) : Percent Effect is -6.6

* * *

- MEASURED_TARGET: Proteasome subunit beta (Trypanosoma cruzi)
- ASSAY_PROCEDURE: Trypanosoma cruzi proteasome chymotrypsin-like activity (TcProtChymo) assay. Note: in the data most compounds retested in dose-response had high values.
- Format: functional
- Design: scale not given: direction of the effect not stated beside the values
- MEASUREMENT_CONTEXT: 9.37 µM
Reported Percent Effect by item:
Numeric answer only, unit % assumed.

>  <MOLECULE>
CC1CN(C(=O)CN(Cc2ccccc2Br)C2CC2)CCO1 (stereo unspecified)

>  <UNIT_INFO>
%

>  <Percent Effect>
-4.77

$$$$
>  <MOLECULE>
CCc1nc(CN(C)CC2CCN(CC(C)O)CC2)no1 (stereo unspecified)

>  <UNIT_INFO>
%

>  <Percent Effect>
1.03

$$$$
>  <MOLECULE>
Cc1ccc(N2CCCC(NCC(=O)NCC3CC3)C2)nn1 (stereo unspecified)

>  <UNIT_INFO>
%

>  <Percent Effect>
15.8

$$$$
>  <MOLECULE>
COCCNC(=O)[C@H]1CN(Cc2scnc2C)C[C@H]2OCC[C@@H]12

>  <UNIT_INFO>
%

>  <Percent Effect>
1.11

$$$$
>  <MOLECULE>
CC(C)N(CC(N)=O)Cc1csc(Cc2ccccc2)n1

>  <UNIT_INFO>
%

>  <Percent Effect>
5.82

$$$$

Okay, next one:
Per the record, CCc1nc(CN2CCCC(NCc3ncc(C(C)(C)C)o3)C2)no1 (stereo unspecified) has Percent Effect of 22.6

* * *

- Tested on: Trypanosoma cruzi
- ASSAY_PROCEDURE: Trypanosoma cruzi phosphomannomutase and mannose-1-phosphate guanylyltransferase assay
- Assay type: functional
- Set-up: scale not given: direction of the effect not stated beside the values
- MEASUREMENT_CONTEXT: 10 µM
ATTRIBUTE_MEASURED: Percent Effect (%)
Your answer should be a plain number; it is taken to be in %.

# annotated cases, reported Percent Effect shown
>  <COMPOUND>
O=C1CN(Cc2nnc(-c3ccc(Br)cc3)o2)CCN1

>  <Percent Effect, %>
2.04

$$$$
>  <COMPOUND>
COc1ccc(S(=O)(=O)N2CCCC3(CCCN3S(C)(=O)=O)C2)cc1 (configuration not stated)

>  <Percent Effect, %>
-8.31

$$$$
>  <COMPOUND>
CCOc1cccc(C(=O)N2CCN(c3nccc(OC)n3)CC2)c1

>  <Percent Effect, %>
-7

$$$$
>  <COMPOUND>
CC(C)c1ncncc1C(=O)N1CCCN(Cc2cccs2)CC1

>  <Percent Effect, %>
8.08

$$$$
>  <COMPOUND>
Cn1cc(CN2CCN(Cc3nccn3C)CC2)cn1

>  <Percent Effect, %>
-8.31

$$$$
>  <COMPOUND>
CCc1ncc2c(n1)CN(C(=O)COC)C2

>  <Percent Effect, %>
2.55

$$$$

Quick note, Percent Effect for Cc1ccc(CN2CCC(F)(F)C3(CCN(c4cnccn4)C3)C2)o1 (configuration not stated) landed at 0

Record CC(C)c1csc(C2CCCN(C(=O)c3ncccn3)C2)n1 (configuration not stated) , field Percent Effect: -4.99

Entry Clc1ccc2cccnc2c1CN1CCCC(Cn2cncn2)C1 (configuration not stated) ; Percent Effect = 0.279

The value of Percent Effect measured for the compound O=c1oc(-c2cccs2)nn1CC(O)c1ccc(F)cc1 (configuration not stated) turned out to be 3.41

Per the records, this compound ( Cc1noc2ncc(C(=O)NCC3CCN(C(C)C)C3)cc12 (configuration not stated) ) has Percent Effect equal to -6.58

What the record says about Cn1cc(-c2nc(CN3CCN(CCO)CC3)cs2)cn1 : Percent Effect is -0.376
